Test Protocol: Solubility in water of complex of Example 9 vs non-complexed paroxetine base
Type: physicochemical
Condition Notes: thermodynamic from solid; deionised water, room temperature, 4 hours stirring, spectrophotometry at 293 nm; read-out: solubility (content of paroxetine base in the solution)
Readout Label: solubility at 4 h (µg/mL)

1) Fc1ccc([C@@H]2CCNC[C@H]2COc2ccc3c(c2)OCO3)cc1 [Paroxetine base, Paroxetine]; 300
